biological target: 5-hydroxytryptamine receptor 1F (Homo sapiens); assay: Binding affinity towards human recombinant 5-hydroxytryptamine 1F receptor
Sequence (P30939 whole entry): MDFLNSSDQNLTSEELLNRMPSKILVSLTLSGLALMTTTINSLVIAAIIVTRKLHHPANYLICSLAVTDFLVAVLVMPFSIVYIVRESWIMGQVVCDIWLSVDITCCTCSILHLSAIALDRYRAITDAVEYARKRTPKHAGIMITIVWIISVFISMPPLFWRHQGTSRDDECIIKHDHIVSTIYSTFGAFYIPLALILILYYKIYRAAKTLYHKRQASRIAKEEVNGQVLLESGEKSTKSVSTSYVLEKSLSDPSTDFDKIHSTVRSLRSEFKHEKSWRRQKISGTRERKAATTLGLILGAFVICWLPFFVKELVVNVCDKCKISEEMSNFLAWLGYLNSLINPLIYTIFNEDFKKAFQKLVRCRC
reported_metric: IC50 (nM)
Numeric only. Scale: nM

[ask] Tell me the measured IC50 of CN(C)[C@H]1C[C@H](c2c[nH]c3ccc(CC4COC(=O)N4)cc32)C1 (stereo in doubt; 1) , please.
[reply] 363

###

target: 5-hydroxytryptamine receptor 1B (Homo sapiens, UniProt P28222); assay: Binding affinity in CHO-K1 cells transfected with human recombinant 5-hydroxytryptamine 1B receptor; format: cell-based
Sequence (P28222 whole entry): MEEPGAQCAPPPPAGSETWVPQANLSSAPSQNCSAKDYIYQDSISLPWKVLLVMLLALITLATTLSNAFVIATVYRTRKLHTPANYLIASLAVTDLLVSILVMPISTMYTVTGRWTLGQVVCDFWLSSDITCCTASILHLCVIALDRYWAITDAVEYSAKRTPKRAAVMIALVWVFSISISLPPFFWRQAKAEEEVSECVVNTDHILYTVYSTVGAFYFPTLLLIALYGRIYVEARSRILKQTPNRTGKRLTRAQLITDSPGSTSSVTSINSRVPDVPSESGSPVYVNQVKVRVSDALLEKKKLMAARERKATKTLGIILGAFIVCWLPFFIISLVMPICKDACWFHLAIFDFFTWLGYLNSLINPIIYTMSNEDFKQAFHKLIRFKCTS
reported_metric: pIC50
Lab note: report pIC50 as minus log10 of the concentration in molar units, number only.

Known pIC50 results, listed for orientation:
INSERT INTO results (molecule, numeric_value) VALUES
  ('CNS(=O)(=O)Cc1ccc2[nH]cc(C[C@H]3CCCN3C)c2c1', 7.84),
  ('CN(C)[C@H]1C[C@H](c2c[nH]c3ccc(CC(N)=O)cc32)C1', 5.87),
  ('CN(C)[C@H]1C[C@H](c2c[nH]c3ccc(C(N)=O)cc32)C1', 7.35);

[ask] Any idea what pIC50 came out for CN(C)[C@H]1C[C@H](c2c[nH]c3ccc(CC4COC(=O)N4)cc32)C1 (stereo in doubt; 35) on 5-hydroxytryptamine receptor 1B (Homo sapiens, UniProt P28222)?
[reply] 6.79

[ask] Try the molecule CN(C)CCc1c[nH]c2ccc(C[C@H]3COC(=O)N3)cc12 [ZOLMITRIPTAN]
[reply] 8.21

[ask] Try the molecule CN1C(=O)OCC1Cc1ccc2[nH]cc([C@H]3C[C@H](N(C)C)C3)c2c1 (stereo in doubt; 34)
[reply] 7.01

###

species on record: Oryctolagus cuniculus; assay: Relative binding affinity in rabbit saphenous vein functional assay compared to 5-HT
pA50 by entry:
Output spec: single numeric token, no unit.

Known pA50 results, listed for orientation:
INSERT INTO measurements (compound, numeric_value) VALUES
  ('CN[C@H]1C[C@H](c2c[nH]c3ccc(CC4COC(=O)N4)cc32)C1 (some centres not stated)', 6.18),
  ('CN(C)[C@H]1C[C@H](c2c[nH]c3ccc(C(N)=O)cc32)C1', 6.25),
  ('CN(C)CCc1c[nH]c2ccc(C[C@H]3COC(=O)N3)cc12 [ZOLMITRIPTAN]', 6.8);

[ask] Tell me the measured pA50 of N[C@H]1C[C@H](c2c[nH]c3ccc(CC4COC(=O)N4)cc32)C1 (stereo in doubt; 23) , please.
[reply] 6.42

[ask] Try the compound CNS(=O)(=O)Cc1ccc2[nH]cc([C@H]3C[C@H](N(C)C)C3)c2c1
[reply] 5.25

[ask] Try the compound CN1C(=O)OCC1Cc1ccc2[nH]cc([C@H]3C[C@H](N(C)C)C3)c2c1 (stereo in doubt; 34)
[reply] 4.85

[ask] Try the compound N[C@H]1C[C@H](c2c[nH]c3ccc(CC4COC(=O)N4)cc32)C1 (stereo in doubt; 24)
[reply] 5.8

[ask] Try the compound CN(C)[C@H]1C[C@H](c2c[nH]c3ccc(CC4COC(=O)N4)cc32)C1 (stereo in doubt; 1)
[reply] 5.72

[ask] Try the compound CN(C)[C@H]1C[C@H](c2c[nH]c3ccc(CC4COC(=O)N4)cc32)C1 (stereo in doubt; 35)
[reply] 5.15

[ask] Try the compound CN1C(=O)OCC1Cc1ccc2[nH]cc([C@H]3C[C@H](N(C)C)C3)c2c1 (stereo in doubt; 30)
[reply] 5.21

[ask] Try the compound CN(C)[C@H]1C[C@H](c2c[nH]c3ccc(CC4COC(=O)N4)cc32)C1 (stereo in doubt; 31)
[reply] 4.95

###

target: 5-hydroxytryptamine receptor 1B (Homo sapiens, UniProt P28222); test: Binding affinity in CHO-K1 cells transfected with human recombinant 5-hydroxytryptamine 1B receptor
IC50 by entry:

[ask] Tell me the measured IC50 of Cc1nc(Cc2ccc3[nH]cc([C@H]4C[C@H](N(C)C)C4)c3c2)n[nH]1 , please.
[reply] 3890 nM

[ask] Try the compound CN(C)[C@H]1C[C@H](c2c[nH]c3ccc(CC4COC(=O)N4)cc32)C1 (stereo in doubt; 31)
[reply] 562 nM

[ask] Try the compound CN(C)[C@H]1C[C@H](c2c[nH]c3ccc(CCN4C(=O)c5ccccc5C4=O)cc32)C1
[reply] 204 nM

[ask] Try the compound CN(C)[C@H]1C[C@H](c2c[nH]c3ccc(CN4C(=O)CNC4=O)cc32)C1
[reply] 6310 nM

[ask] Try the compound CN(C)[C@H]1C[C@H](Cc2c[nH]c3ccc(C[C@H]4COC(=O)N4)cc23)C1
[reply] 141 nM

[ask] Try the compound N[C@H]1C[C@H](c2c[nH]c3ccc(Oc4ccccc4)cc32)C1
[reply] 9.55 nM

###

pIC50 by entry:
biological target: 5-hydroxytryptamine receptor 1D (Homo sapiens, UniProt P28221); experiment: Binding affinity in CHO-K1 cells transfected with human 5-hydroxytryptamine 1D receptor
Sequence (P28221 whole entry): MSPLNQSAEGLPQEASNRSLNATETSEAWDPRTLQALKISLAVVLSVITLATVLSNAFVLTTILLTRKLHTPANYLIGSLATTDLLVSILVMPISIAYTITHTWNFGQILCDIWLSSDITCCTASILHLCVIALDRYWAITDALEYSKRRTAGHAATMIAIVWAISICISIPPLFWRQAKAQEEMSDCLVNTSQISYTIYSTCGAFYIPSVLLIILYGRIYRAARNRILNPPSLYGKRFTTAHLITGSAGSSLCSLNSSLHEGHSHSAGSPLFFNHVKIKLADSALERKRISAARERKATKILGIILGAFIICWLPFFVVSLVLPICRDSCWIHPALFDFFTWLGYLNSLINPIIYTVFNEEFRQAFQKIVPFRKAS
Lab note: report pIC50 as minus log10 of the concentration in molar units, number only.

INSERT INTO measurements (molecule, reported_metric, numeric_value) VALUES
  ('N[C@H]1C[C@H](c2c[nH]c3ccc(Oc4ccccc4)cc32)C1', 'pIC50', 7.84),
  ('CN(C)[C@H]1C[C@H](c2c[nH]c3ccc(CC4COC(=O)N4)cc32)C1 (stereo in doubt; 1)', 'pIC50', 7.80),
  ('CN(C)[C@H]1C[C@H](c2c[nH]c3ccc(CN4C(=O)NC(C)(C)C4=O)cc32)C1', 'pIC50', 5.51),
  ('CC1(C)NC(=O)N(CCc2ccc3[nH]cc([C@H]4C[C@H](N)C4)c3c2)C1=O', 'pIC50', 6.30),
  ('Cc1nc(Cc2ccc3[nH]cc([C@H]4C[C@H](N(C)C)C4)c3c2)n[nH]1', 'pIC50', 5.69);

[ask] Tell me the measured pIC50 of CN(C)[C@H]1C[C@H](c2c[nH]c3ccc(C(=O)NCc4ccccc4)cc32)C1 , please.
[reply] 6.85

[ask] Try the molecule CNS(=O)(=O)Cc1ccc2[nH]cc([C@H]3C[C@H](N(C)C)C3)c2c1
[reply] 6.72

[ask] Try the molecule CNS(=O)(=O)Cc1ccc2[nH]cc(C[C@H]3CCCN3C)c2c1
[reply] 8.14

[ask] Try the molecule CN(C)[C@H]1C[C@H](c2c[nH]c3ccc(CC4COC(=O)N4)cc32)C1 (stereo in doubt; 35)
[reply] 7.00

[ask] Try the molecule CN(C)[C@H]1C[C@H](c2c[nH]c3ccc(CCN4C(=O)NC(C)(C)C4=O)cc32)C1
[reply] 5.83

[ask] Try the molecule CN(C)[C@H]1C[C@H](c2c[nH]c3ccc(CC(=O)NCc4ccccc4)cc32)C1
[reply] 6.47

[ask] Try the molecule CN(C)[C@H]1C[C@H](c2c[nH]c3ccc(CCN4C(=O)c5ccccc5C4=O)cc32)C1
[reply] 6.71

[ask] Try the molecule CN(C)[C@H]1C[C@H](c2c[nH]c3ccc(CN4C(=O)CNC4=O)cc32)C1
[reply] 5.61

[ask] Try the molecule CN(C)[C@H]1C[C@H](Cc2c[nH]c3ccc(C[C@H]4COC(=O)N4)cc23)C1
[reply] 7.54

[ask] Try the molecule Cc1noc(Cc2ccc3[nH]cc([C@H]4C[C@H](N(C)C)C4)c3c2)n1
[reply] 6.03

[ask] Try the molecule CN(C)[C@H]1C[C@H](c2c[nH]c3ccc(C(N)=O)cc32)C1
[reply] 7.83

[ask] Try the molecule CN(C)[C@H]1C[C@H](c2c[nH]c3ccc(Oc4ccccc4)cc32)C1
[reply] 7.19

[ask] Try the molecule CN(C)[C@H]1C[C@H](c2c[nH]c3ccc(CC4COC(=O)N4)cc32)C1 (stereo in doubt; 31)
[reply] 6.77

[ask] Try the molecule Cc1noc(-c2ccc3[nH]cc([C@H]4C[C@H](N(C)C)C4)c3c2)n1
[reply] 6.25

[ask] Try the molecule N[C@H]1C[C@H](c2c[nH]c3ccc(CC4COC(=O)N4)cc32)C1 (stereo in doubt; 23)
[reply] 8.44

[ask] Try the molecule CN[C@H]1C[C@H](c2c[nH]c3ccc(CC4COC(=O)N4)cc32)C1 (stereo not given in full)
[reply] 8.15

[ask] Try the molecule CN1C(=O)OCC1Cc1ccc2[nH]cc([C@H]3C[C@H](N(C)C)C3)c2c1 (stereo in doubt; 30)
[reply] 7.00

[ask] Try the molecule CN(C)[C@H]1C[C@H](c2c[nH]c3ccc(CC(N)=O)cc32)C1
[reply] 6.14

[ask] Try the molecule CN(C)CCc1c[nH]c2ccc(C[C@H]3COC(=O)N3)cc12 [ZOLMITRIPTAN]
[reply] 8.55

[ask] Try the molecule CN1C(=O)OCC1Cc1ccc2[nH]cc([C@H]3C[C@H](N(C)C)C3)c2c1 (stereo in doubt; 34)
[reply] 7.24
